target: Sphingosine 1-phosphate receptor 3 (Homo sapiens); experiment: Antagonist activity at human S1P3 receptor expressed in CHOK1 cells assessed as effect on calcium mobilization; type: functional, cell-based; settings: CHO-K1
Activity calls are given as the source filed them. The rule behind the calls is not given here.

{"columns": ["SMILES REPR", "Activity"],
 "data": [
  ["CCCCCCCCc1ccc([C@H]2CC[C@](N)(COP(=O)(O)O)C2)cc1", "Active"],
  ["CCCCCCCCc1ccc([C@@H]2CC[C@@](N)(COP(=O)(O)O)C2)cc1", "Active"],
  ["CCCCCCCCc1ccc([C@H]2CC[C@@](N)(COP(=O)(O)O)C2)cc1", "Active"]
]}

* * *

Target: UniProt Q9JIA7
Sequence (whole entry): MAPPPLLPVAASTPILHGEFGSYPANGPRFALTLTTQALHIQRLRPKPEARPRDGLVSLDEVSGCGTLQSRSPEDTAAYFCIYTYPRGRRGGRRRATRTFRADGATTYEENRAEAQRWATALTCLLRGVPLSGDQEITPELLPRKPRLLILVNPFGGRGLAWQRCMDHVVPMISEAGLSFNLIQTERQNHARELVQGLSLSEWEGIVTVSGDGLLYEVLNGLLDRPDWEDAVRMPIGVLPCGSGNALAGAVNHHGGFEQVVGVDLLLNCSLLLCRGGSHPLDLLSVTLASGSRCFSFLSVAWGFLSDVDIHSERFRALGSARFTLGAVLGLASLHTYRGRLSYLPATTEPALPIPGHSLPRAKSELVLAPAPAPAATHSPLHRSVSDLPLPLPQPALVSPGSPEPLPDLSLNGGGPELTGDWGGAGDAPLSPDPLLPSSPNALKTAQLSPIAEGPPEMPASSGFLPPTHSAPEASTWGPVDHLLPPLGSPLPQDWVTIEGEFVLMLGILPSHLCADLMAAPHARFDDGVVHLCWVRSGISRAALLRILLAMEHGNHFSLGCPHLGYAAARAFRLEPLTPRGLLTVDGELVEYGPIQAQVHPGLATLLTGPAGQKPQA
Experiment: Substrate activity at mouse Sphk2 expressed in HEK293T cells
Conditions: HEK-293T
Activity calls are given as the source filed them. The rule behind the calls is not given here.
Could you please pick one outcome from this set? active, inactive

{"columns": ["SMILES REPR", "ASSIGNED LABEL"],
 "data": [
  ["CCCCCCCCc1ccc([C@H]2CC[C@@](N)(CO)C2)cc1", "inactive"],
  ["CCCCCCCCc1ccc([C@@H]2CC[C@@](N)(CO)C2)cc1", "inactive"],
  ["CCCCCCCCc1ccc([C@H]2CC[C@](N)(CO)C2)cc1", "active"]
]}

Moving on to the next compound.
What did this assay record as the result for CCCCCCCCc1ccc([C@@H]2CC[C@](N)(CO)C2)cc1 ?
active
